The reported measurements were obtained from ChEMBL document CHEMBL2417385.

Measured IC50, listed per entry.
Test system: MCF7
Assay: Cytotoxicity against human MCF7 cells after 2 days by MTT assay
Type: functional, cell-based
Conditions: MCF7, 48 h
Numbers only; they are read as µM.

C=CCCCCCC/C=C\C[C@H](O)[C@H](C)N | 15.5
CCCCCC/C=C\CC/C=C/C[C@H](O)[C@H](C)N | 13.5

The reported IC50 of the molecule COc1cccc2c1C(=O)c1c(O)c3c(c(O)c1C2=O)C[C@@](O)(C(=O)CO)C[C@@H]3O[C@H]1C[C@H](N)[C@H](O)[C@H](C)O1 [DOXORUBICIN] was 13.5

---

Tested on: HeLa
Assay: Cytotoxicity against human HeLa cells assessed as growth inhibition after 2 days by MTT assay
Format: functional, cell-based
Settings: 48 h
Measured pIC50, listed per entry.
Units for pIC50: none; it is -log10 of a concentration expressed in mol/L.

C=CCCCCCC/C=C\C[C@H](O)[C@H](C)N | 4.72

The reported pIC50 of the molecule C=CCCCC/C=C/C=C/C[C@H](O)[C@H](C)N was 5.23

The reported pIC50 of the molecule CCCCCC/C=C\CC/C=C/C[C@H](O)[C@H](C)N was 4.40

The reported pIC50 of the molecule COc1cccc2c1C(=O)c1c(O)c3c(c(O)c1C2=O)C[C@@](O)(C(=O)CO)C[C@@H]3O[C@H]1C[C@H](N)[C@H](O)[C@H](C)O1 was 6.29
